Recorded growth inhibition for the following compounds
# protocol_notes: NCI Yeast Anticancer Drug Screen. Data for the rad50EPP+ strain (AID 151);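 also: 0% = growth of vehicle-treated control cultures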
# condition_summary: S. cerevisiae rad50 mutant strain, at 11.0 µM, stronger effect = higher value
Compounds without any hit were thinned out: in the full panel of roughly 79,000, 15% have a hit. Active and inactive are the calls of the source. Rule as the data show it: active = growth inhibition above about 70%; inactive = the rest.

- compound: "COc1ccc2[nH]cc([C@@H]3C4CCC(C4)[C@H]3NCc3cccc(CN[C@H]4C5CCC(C5)[C@@H]4c4c[nH]c5ccc(OC)cc45)c3)c2c1"
  growth inhibition: "-7% (inactive)"
- compound: "O=C1C(=O)c2ccccc2C(O)=C1C(C1=C(O)c2ccccc2C(=O)C1=O)c1ccc(Cl)cc1"
  growth inhibition: "51% (inactive)"
- compound: "O=c1ssc(=Nc2ccccc2)n1-c1ccccc1"
  growth inhibition: "3% (inactive)"
- compound: "CN(C)N=Nc1ccccc1C(=O)NC#N"
  growth inhibition: "13% (inactive)"
- compound: "CC(=O)OC1CC2C(C)(C)C(=O)C=C[C@]2(C)C2CCC3(C)C(=CCC3[C@H](CO)C[C@H](O)C(=O)C(C)(C)O)[C@]12C (stereo partly drawn)"
  growth inhibition: "-39% (inactive)"
- compound: "O=C(CC(C(=O)O)N1CCOCC1)c1ccccc1 (stereo not drawn)"
  growth inhibition: "2% (inactive)"
- compound: "CCCC(O)C1CC(C(C)C)CCC1C (stereo not drawn)"
  growth inhibition: "7% (inactive)"
- compound: "CCCCCCCCCCCC1=NCCO1"
  growth inhibition: "16% (inactive)"
- compound: "CCCCCCCCCCCCCCCCOP(=O)(O)OCC(N)C(=O)O (stereo not drawn)"
  growth inhibition: "80% (active)"
- compound: "O=C(O)c1ccc(N2C(=O)C=CC2=O)cc1"
  growth inhibition: "8% (inactive)"
- compound: "CC(C)/C(Cl)=N\\OC(=O)Nc1ccc(F)cc1F"
  growth inhibition: "25% (inactive)"
- compound: "COC(=O)NC1C(C)OC(OC2C/C=C(/C)C3C=CC4C(OC5CC(OC6CC(O)C(OC7CC(O)C(OC)C(C)O7)C(C)O6)C(O)C(C)O5)C(C)CC(C)C4C3(C)/C(O)=C3\\C(=O)OC4(CC(C)C(CO)=CC4/C=C\\2C)C3=O)CC1(C)[N+](=O)[O-] (stereo not drawn)"
  growth inhibition: "11% (inactive)"
- compound: "N#CC1=C(N)N(/N=C/c2ccccc2)C(c2ccccc2)C1(C#N)C#N (stereo not drawn)"
  growth inhibition: "8% (inactive)"
- compound: "Cc1cccc(C(C)(C)C)c1NC(=O)C(C#N)C1=C(Cl)C(=O)c2ccccc2C1=O (stereo not drawn)"
  growth inhibition: "99% (active)"
- compound: "O=C1c2ccccc2C(=O)N1CCCC(=O)n1cc(F)c(=O)[nH]c1=O"
  growth inhibition: "27% (inactive)"
- compound: "CCN(CC)CCN(C)CCc1ccc(Br)cc1"
  growth inhibition: "-2% (inactive)"
- compound: "CCC1(OC(=O)CN2CCN(CCO)CC2)C(=O)OCc2c1cc1n(c2=O)Cc2cc3ccccc3nc2-1 (stereo not drawn)"
  growth inhibition: "42% (inactive)"
- compound: "Cc1sc2ccc3ccccc3c2[n+]1C"
  growth inhibition: "-40% (inactive)"
- compound: "c1ccc2cc(NCNc3ccc4ccccc4c3)ccc2c1"
  growth inhibition: "11% (inactive)"
- compound: "CC[N+]1(C)CCC(O)(c2ccc(OC)cc2)C(C(=O)c2ccc(OC)cc2)C1 (stereo not drawn)"
  growth inhibition: "-38% (inactive)"
- compound: "CCOC(=O)C1=C(C)NC(C)=C(C(=O)OCCNC(=O)c2ccc(N=[N+]=[N-])cc2)C1c1ccccc1C(F)(F)F (stereo not drawn)"
  growth inhibition: "1% (inactive)"
- compound: "NC(=O)C(=O)NNc1ccccc1"
  growth inhibition: "60% (inactive)"
- compound: "Cc1nc(-c2cc3cc([N+](=O)[O-])ccc3oc2=O)cs1"
  growth inhibition: "57% (inactive)"
- compound: "O=C(/C=C(/c1ccccc1)N1CCCCC1)c1ccccc1"
  growth inhibition: "42% (inactive)"
- compound: "CCCCCCN(CCCCCC)CC(O)c1ccnc2ccc(OC)cc12 (stereo not drawn)"
  growth inhibition: "-2% (inactive)"
- compound: "Cc1cc2c3ccccc3c3ccccc3c2nn1"
  growth inhibition: "56% (inactive)"
- compound: "Cc1cc(N(CCOS(C)(=O)=O)CCOS(C)(=O)=O)ccc1C=Nc1ccc(-c2csc(-c3ccccc3)n2)c(Cl)c1"
  growth inhibition: "13% (inactive)"
- compound: "O=[N+]([O-])c1ccc(N/N=C/Cc2ccccc2)c([N+](=O)[O-])c1"
  growth inhibition: "24% (inactive)"
- compound: "CCOC(=O)[C@H]1Nc2ccc(OC)cc2C2c3ccccc3CC21 (stereo partly drawn)"
  growth inhibition: "-23% (inactive)"
- compound: "C=C(Cl)COC(=O)Nc1cccc(Cl)c1"
  growth inhibition: "52% (inactive)"
- compound: "O=C(NCCCNCCN1C(=O)c2cccc3cc([N+](=O)[O-])cc(c23)C1=O)c1cc(-c2ccccc2)nc2ccccc12"
  growth inhibition: "8% (inactive)"
- compound: "Cc1ccc2nc(-c3cccc([N+](=O)[O-])c3)oc(=O)c2c1"
  growth inhibition: "18% (inactive)"
- compound: "CCOC1(c2cccc([N+](=O)[O-])c2)c2ccccc2Oc2ccccc21"
  growth inhibition: "11% (inactive)"
- compound: "COc1cc2ccnc(-c3c4ccccc4c(N)c4c(OC)c(OC)ccc34)c2cc1OC"
  growth inhibition: "22% (inactive)"
- compound: "Nc1ccc(F)cc1S"
  growth inhibition: "-37% (inactive)"
- compound: "CC(NCCN(C)C)C1CCC2C3CCc4cc(O)ccc4C3CCC12C (stereo not drawn)"
  growth inhibition: "66% (inactive)"
- compound: "CCN(CC)CCNc1ccc([N+](=O)[O-])c2nc3ccccc3c(N)c12"
  growth inhibition: "1% (inactive)"
- compound: "NNC(=O)CCc1cc2ccccc2c2ccccc12"
  growth inhibition: "-16% (inactive)"
- compound: "O=C(O)Cc1cc(F)ccc1C(=O)O"
  growth inhibition: "-13% (inactive)"
- compound: "CCCCc1ccc(-n2c(C)c(COC(=O)NC)c(COC(=O)NC)c2C)cc1"
  growth inhibition: "-6% (inactive)"
- compound: "O=[N+]([O-])c1cccc2nc3ccccc3c(NCCC[N+]3([O-])CCCCC3)c12"
  growth inhibition: "77% (active)"
- compound: "CC(C)(C)N=C(NO)c1ccccc1"
  growth inhibition: "14% (inactive)"
- compound: "NC(N)=NS(=O)(=O)c1ccc(Nc2c3ccccc3nc3c(C(=O)NCCO)cccc23)cc1"
  growth inhibition: "-5% (inactive)"

###

# protocol_notes: NCI Yeast Anticancer Drug Screen. Data for the wt1 strain (AID 149);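 also: 0% = growth of vehicle-treated wt1 cultures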
# condition_summary: S. cerevisiae wt1 strain (SPY 50644) growth inhibition; at 1.2 µM
The panel holds about 79,000 compounds, 15% with a hit somewhere; the sample as a whole holds those more often. The source made the active and inactive calls. Cut-off read from the data, not from the text of the source: active = growth inhibition above about 70%; inactive = the rest.
Outcomes: TRUE for active, FALSE for inactive

- molecule: "O=C1C=C(N2CCN(c3ccccn3)CC2)C(=O)c2c(O)ccc(O)c21"
  category: "FALSE"
- molecule: "CN(C)CCNC(=O)c1cccc2c1Oc1c(cccc1[N+](=O)[O-])O2"
  category: "FALSE"
- molecule: "CC(/C=C/c1ccccc1)=N\\NC(N)=S"
  category: "FALSE"
- molecule: "c1ccc2c(OCC3CO3)cccc2c1 (stereo unspecified)"
  category: "FALSE"
- molecule: "O=C(O)c1ccc(N2C(=O)C=CC2=O)cc1"
  category: "FALSE"
- molecule: "COc1cccc2c1C(=O)c1c(O)c3c(c(O)c1C2=O)CC(O)(C(O)CO)CC3OC1CC(N2CCOCC2)C(O)C(C)O1 (stereo unspecified)"
  category: "TRUE"
- molecule: "Brc1ccccc1-c1ncc(-c2ccccc2)o1"
  category: "FALSE"
- molecule: "CN(C)CCNC(=O)c1cccc2cc([N+](=O)[O-])ccc12"
  category: "FALSE"
- molecule: "Nc1ccn(C2OC(COP(=O)(O)O)C(O)C2O)c(=O)n1 (stereo unspecified)"
  category: "FALSE"
- molecule: "CN(C)Cc1cc(N=Nc2ccc(Cl)cc2)ccc1OC(=O)c1ccccc1"
  category: "FALSE"
- molecule: "CC[N+](CC)(CC)c1ccccc1"
  category: "FALSE"

###

This listing pairs compounds with measured growth inhibition.
# protocol_notes: NCI Yeast Anticancer Drug Screen. Data for the CLN2oe strain (AID 163);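 also: 0% = growth of vehicle-only control cultures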
# condition_summary: S. cerevisiae CLN2oe strain, at 11.0 µM, stronger effect = higher value
This is part of a sample that, as a whole, favours compounds with a hit. Of some 79,000 tested, about 15% had one in any assay. Calls of active or inactive are those of the source. Rule as the data show it: active = growth inhibition above about 70%; inactive = the rest.

- compound: "CCOC(=N)c1ccc(O)c(OC)c1"
  growth inhibition: "1% (inactive)"
- compound: "CNC(=O)OCc1c(COC(=O)NC)c2n(c1C)-c1ccc(OC)cc1CCC2"
  growth inhibition: "-5% (inactive)"
- compound: "Cc1c(C)c(C)c(CSC(=N)N)c(C)c1C"
  growth inhibition: "-14% (inactive)"
- compound: "Cc1c(-c2ccccn2)ccc2ccccc12"
  growth inhibition: "-7% (inactive)"
- compound: "Cc1ccc(NC(c2ccccc2)c2ccc3cccnc3c2O)cc1 (stereo unspecified)"
  growth inhibition: "0% (inactive)"
- compound: "CCOC(=O)C(C(=O)OCC)=P(c1ccccc1)(c1ccccc1)c1ccccc1"
  growth inhibition: "-1% (inactive)"
- compound: "CCC(=O)c1cc(C(=O)C(=S)SC)cc(C(=O)C(=S)SC)c1"
  growth inhibition: "96% (active)"
- compound: "CCCCNC1CCC2(SCCS2)c2[nH]c3ccccc3c21 (stereo unspecified)"
  growth inhibition: "0% (inactive)"
- compound: "C[CH2][Sn]([CH2]C)([O]C(=O)C(N)Cc1ccccc1)[O]C(=O)C(N)Cc1ccccc1 (stereo unspecified)"
  growth inhibition: "10% (inactive)"
- compound: "O=C(CC(=O)n1nc(-c2ccccc2)c(N=Nc2ccc(Cl)cc2)c1-c1ccccc1)Nc1cccc(Cl)c1"
  growth inhibition: "-10% (inactive)"
- compound: "CCOC(=O)COc1c(OC)cc(C2C3=C(COC3=O)Oc3cc4c(cc32)OCO4)cc1OC (stereo unspecified)"
  growth inhibition: "5% (inactive)"
